target_of_assay: T1, human S100A8/A9 heterodimeric antigen, His-tagged (hS100A8/A9-His) (human, UniProt P05109 1-93; P06702 1-114)
T1 sequence 1: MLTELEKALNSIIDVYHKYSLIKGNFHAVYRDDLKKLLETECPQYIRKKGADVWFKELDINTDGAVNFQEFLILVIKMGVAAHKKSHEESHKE
T1 sequence 2: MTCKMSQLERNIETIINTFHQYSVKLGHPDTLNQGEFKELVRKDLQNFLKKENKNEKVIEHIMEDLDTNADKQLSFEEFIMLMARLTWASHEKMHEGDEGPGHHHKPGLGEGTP
test: cell-based or functional assay
recorded_endpoint: Relative IC50 (IC50 relative to CM-1), IL-6 release from hS100A8/A9-activated human PBMCs

binder | result
CM-87 (antibody, human IgG4 S228P, lambda, V domains shown) VH: EVQLVESGGGLVQPGGSLRLSCAASGFTFSDYAMSWVRQAPGKGLEWVSAISGSGGSTYYAASVKGRFTISRDNSKNTLYLQMNSLRAEDTAVYYCARKYRPSRVFDAWGQGTLVTVSS VL: SYELTQPPSVSVAPGQTARITCSGDALGDKYASWYQQKPGQAPVLVIYEDAKRPSGIPERFSGSNSGNTATLTISGTQAEDEADYYCQSNDADAWWVFGGGTKLTVLG | 0.749 relative to CM-1
CM-97 (antibody, human IgG4 S228P, lambda, V domains shown) VH: EVQLVESGGGLVQPGGSLRLSCAASGFTFSDYAMSWVRQAPGKGLEWVSAISGSGGSTYYAASVKGRFTISRDNSKNTLYLQMNSLRAEDTAVYYCARKYRPSRVFDAWGQGTLVTVSS VL: SYELTQPPSVSVAPGQTARITCSGDALGDKYASWYQQKPGQAPVLVIYEDAKRPYGIPERFSGSNSGNTATLTISGTQAEDEADYYCQSNDADAWWVFGGGTKLTVLG | 0.599 relative to CM-1
CM-70 (antibody, human IgG4 S228P, lambda, V domains shown) VH: EVQLVESGGGLVQPGGSLRLSCAASGFTFSSYAMSWVRQAPGKGLEWVSAISGSGGSTYYHASVKGRFTISRDNSKNTLYLQMNSLRAEDTAVYYCARKYRPSRAFDAWGQGTLVTVSS VL: SYELTQPPSVSVAPGQTARITCSGDALGDKFASWYQQKPGQAPVLVIYEDAKRPSGIPERFSGSNSGNTATLTISGTQAEDEADYYCQSNDADAVWVFGGGTKLTVLG | 1.95 relative to CM-1
CM-73 (antibody, human IgG4 S228P, lambda, V domains shown) VH: EVQLVESGGGLVQPGGSLRLSCAASGFTYSSYAMSWVRQAPGKGLEWVSAISGSGGSTYYAASVKGRFTISRDNSKNTLYLQMNSLRAEDTAVYYCARKYRPSRAFDAWGQGTLVTVSS VL: SYELTQPPSVSVAPGQTARITCSGDALGDKYASWYQQKPGQAPVLVIYQDAKRPSGIPERFSGSNSGNTATLTISGTQAEDEADYYCQSNDIDAVWVFGGGTKLTVLG | 0.703 relative to CM-1
CM-105 (antibody, human IgG4 S228P, lambda, V domains shown) VH: EVQLVESGGGLVQPGGSLRLSCAASGFTFSDYAMSWVRQAPGKGLEWVSAISGSGGSHYYAASVKGRFTISRDNSKNTLYLQMNSLRAEDTAVYYCARKYRPSRVFDAWGQGTLVTVSS VL: SYELTQPPSVSVAPGQTARITCSGDALHDKYAAWYQQKPGQAPVLVIYEDAKRPSGIPERFSGSNSGNTATLTISGTQAEDEADYYCQSNDADAVWVFGGGTKLTVLG | 1.5 relative to CM-1
CM-107 (antibody, human IgG4 S228P, lambda, V domains shown) VH: EVQLVESGGGLVQPGGSLRLSCAASGFTFSDYAMSWVRQAPGKGLEWVSAISGSGGSHYYAASVKGRFTISRDNSKNTLYLQMNSLRAEDTAVYYCARKYRPSRVFDAWGQGTLVTVSS VL: SYELTQPPSVSVAPGQTARITCSGDALGDKYASWYQQKPGQAPVLVIYEHHKRPSGIPERFSGSNSGNTATLTISGTQAEDEADYYCQSNDADAVWVFGGGTKLTVLG | 0.386 relative to CM-1
CM-86 (antibody, human IgG4 S228P, lambda, V domains shown) VH: EVQLVESGGGLVQPGGSLRLSCAASGFTFSSHAMSWVRQAPGKGLEWVSAISGSGGSTYYAASVKGRFTISRDNSKNTLYLQMNSLRAEDTAVYYCARKYRPSRVFDAWGQGTLVTVSS VL: SYELTQPPSVSVAPGQTARITCSGDALGDKYASWYQQKPGQAPVLVIYEDAKRPSGIPERFSGSNSGNTATLTISGTQAEDEADYYCQSNDADAVWVFGGGTKLTVLG | 1.27 relative to CM-1
CM-111 (antibody, human IgG4 S228P, lambda, V domains shown) VH: EVQLVESGGGLVQPGGSLRLSCAASGFTFSSYAMSWVRQAPGKGLEWVSAISGHGGSTYYAASVKGRFTISRDNSKNTLYLQMNSLRAEDTAVYYCARKYRPSRVFDAWGQGTLVTVSS VL: SYELTQPPSVSVAPGQTARITCSGDALGDKYAAWYQQKPGQAPVLVIYEDAKRPSGIPERFSGSNSGNTATLTISGTQAEDEADYYCQSNDADAVWVFGGGTKLTVLG | 1.08 relative to CM-1

Which Relative IC50 (IC50 relative to CM-1), IL-6 release from hS100A8/A9-activated human PBMCs value is on record for CM-92 (antibody, human IgG4 S228P, lambda, V domains shown) VH: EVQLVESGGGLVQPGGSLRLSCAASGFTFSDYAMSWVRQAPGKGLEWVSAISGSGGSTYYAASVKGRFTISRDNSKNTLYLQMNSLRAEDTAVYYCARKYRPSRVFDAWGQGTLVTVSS VL: SYELTQPPSVSVAPGQTARITCSGDALHDKYASWYQQKPGQAPVLVIYEDAKRPSGIPERFSGSNSGNTATLTISGTQAEDEADYYCQSNDADAYWVFGGGTKLTVLG ?
0.697 relative to CM-1

Which Relative IC50 (IC50 relative to CM-1), IL-6 release from hS100A8/A9-activated human PBMCs value is on record for CM-99 (antibody, human IgG4 S228P, lambda, V domains shown) VH: EVQLVESGGGLVQPGGSLRLSCAASGFTFSDYAMSWVRQAPGKGLEWVSAISGSGGSHYYAASVKGRFTISRDNSKNTLYLQMNSLRAEDTAVYYCARKYRPSRVFDAWGQGTLVTVSS VL: SYELTQPPSVSVAPGQTARITCSGDALGDKYASWYQQKPGQAPVLVIYEDAKRPSGIPERFSGSNSGNTATLTISGTQAEDEADYYCQSNDADAVWVFGGGTKLTVLG ?
1.3 relative to CM-1
